tested on: SK-MEL-2; test: NCI tumour cell line growth inhibition, 48 h
Active and inactive are the calls of the source. Cut-off read from the data, not from the text of the source: active = GI50 up to about 1.1 µM and inactive = higher.
Outcomes: active, inactive

compound	assigned.category
CC(C)(C)[Si](OC1CC(n2cnc3c(N)ncnc32)OC1CO)(c1ccccc1)c1ccccc1 (stereo unspecified)	inactive
CCCCCCCCCCCCOC(=S)NC	inactive
N#Cc1nc(Nc2cccc3ccccc23)sc1N	inactive
CC(=O)OC1c2ccccc2CCCCCCC12OCCO2 (stereo unspecified)	inactive
CN1CCCN2CCN(C)CCN(CC1)CC2	inactive
O=C1O/C(=C\c2ccccc2)N(c2ccccc2)C1=O	inactive
Cc1ccc(S(=O)(=O)N2CCN3C(=O)c4ccccc4C32c2ccc(F)cc2)cc1 (stereo unspecified)	inactive
COc1cc2c(/C=C3/C(=O)Nc4ccc(Cl)cc43)c(Cl)[nH]c2cc1C	active
CN(c1c(Cl)cccc1Cl)S(=O)(=O)c1ccccc1[N+](=O)[O-]	inactive
O=C1CC23CCCCCCCCCCC2(C1)CC(=O)C3 (stereo unspecified)	inactive
COc1ccc(/C(=C/n2ccnc2)C(O)c2ccc(OC)c(OC)c2)cc1OC (stereo unspecified)	inactive
